Test system: Mycobacterium tuberculosis
Assay: Antimicrobial activity in Mycobacterium tuberculosis H37Rv ATCC 27294 assessed as reduction in metabolic activity by measuring incorporation radioactively labeled [3H] uracil into live bacilli preincubated for 72 hrs followed by [3H] uracil addition and measured after 18 hrs by beta-counter analysis
Assay type: functional, organism-based
Details: time 90.0 hrs
Activity calls are given as the source filed them. No cut-off for these calls is given here.
Possible outcomes: T (active), F (inactive)

- Molecule: "C=CC[C@@]12C[C@H](CC=C(C)C)C(C)(C)[C@@](CC=C)(C(=O)C(C(C)=O)=C1[O-])C2=O.[Na+]"
  Category: "T"
- Molecule: "C=CC[C@@]12C[C@H](CC=C(C)C)C(C)(C)[C@@](CC=C)(C(=O)C(C(=O)c3ccccc3)=C1O)C2=O"
  Category: "F"
- Molecule: "C=CC[C@@]12C(=O)C(C(=O)c3ccccc3)=C(O)[C@@](Cc3ccccc3)(C[C@H](CC=C(C)C)C1(C)C)C2=O"
  Category: "F"
- Molecule: "CC(=O)C1=C(O)[C@@]2(CC=C(C)C)C[C@H](CC=C(C)C)C(C)(C)[C@@](CC=C(C)C)(C1=O)C2=O"
  Category: "F"
- Molecule: "CC(C)=CC[C@H]1C[C@@]2(CC=C(C)C)C(=O)[C@](CC=C(C)C)(C(=O)C(C(=O)C(C)C)=C2O)C1(C)C"
  Category: "F"
- Molecule: "C=CC[C@@]12C(=O)C(C(=O)c3ccccc3)=C(O)[C@@](Cc3ccccc3)(C[C@H](Cc3ccccc3)C1(C)C)C2=O"
  Category: "F"
